Data credit: PubChem BioAssay (EPA / NIEHS)

# TESTED_TARGET: Retinoic acid receptor RXR-alpha (Homo sapiens) (UniProt P19793)
# Sequence (P19793 whole entry, looked up): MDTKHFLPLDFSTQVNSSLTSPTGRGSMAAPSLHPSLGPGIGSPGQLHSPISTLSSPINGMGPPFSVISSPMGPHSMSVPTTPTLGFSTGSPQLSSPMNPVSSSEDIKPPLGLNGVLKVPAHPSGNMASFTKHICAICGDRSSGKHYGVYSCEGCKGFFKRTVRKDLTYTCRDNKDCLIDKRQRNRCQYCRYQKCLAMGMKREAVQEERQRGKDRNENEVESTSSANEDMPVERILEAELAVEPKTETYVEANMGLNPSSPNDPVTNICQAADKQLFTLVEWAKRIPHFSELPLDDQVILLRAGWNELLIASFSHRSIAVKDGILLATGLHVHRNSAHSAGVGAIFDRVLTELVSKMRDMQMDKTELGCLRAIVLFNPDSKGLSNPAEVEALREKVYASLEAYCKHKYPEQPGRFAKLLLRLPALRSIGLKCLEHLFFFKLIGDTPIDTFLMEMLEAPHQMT
# ASSAY_METHOD_TEXT: OT_NURR1_NURR1RXRa_0480: Odyssey Thera (OT) 8-hour HEK293T Protein Complementation Assay for Nurr1/retinoid X receptor (RXR) (AID 2283385)
Records with an inconclusive call do not appear. The source made the active and inactive calls. Rule for the calls: active = hit-call score of the fitted dose curve at least 0.9, where 1 is the maximum; inconclusive = response in the unintended direction; inactive = score below 0.9.
Output constraint: value belongs to active, inactive

CCCN(C1CCN(C(=O)C2CCNCC2)CC1)[C@@H]1CCc2ccc(OC)cc2C1
active

Ask | Recorded test outcome, item Cc1ccc(C)c(O)c1
Reply | inactive

Ask | Name the outcome recorded for CC(=O)OC[C@H]1O[C@@](COC(C)=O)(O[C@H]2O[C@H](COC(C)=O)[C@@H](OC(C)=O)[C@H](OC(C)=O)[C@H]2OC(C)=O)[C@@H](OC(C)=O)[C@@H]1OC(C)=O in the assay.
Reply | inactive

Ask | Tell me the assay call for On1ccccc1=S please.
Reply | inactive

Ask | # outcome recorded in this test, key = CC[C@H]1OC(=O)[C@H](C)[C@@H](O[C@H]2C[C@@](C)(OC)[C@@H](O)[C@H](C)O2)[C@H](C)[C@@H](O[C@@H]2O[C@H](C)C[C@H](N(C)C)[C@H]2O)[C@](C)(O)C[C@@H](C)C(=O)[C@H](C)[C@@H](O)[C@]1(C)O
Reply | inactive

Ask | Hi, sorry to bother you, what did the test record for C[C@](N)(Cc1ccc(O)c(O)c1)C(=O)O ?
Reply | inactive
